test system: Hs-578T; assay: NCI tumour cell line growth inhibition, 48 h
Calls of active or inactive are those of the source. Cut-off read from the data, not from the text of the source: active = GI50 up to about 1.1 µM and inactive = higher.
Observed Property: GI50

{"Compound": "O=C1c2ccccc2/C(=N\\c2ccc3ccccc3c2)C1(C1=C(c2ccccc2)/C(=N/c2ccc3ccccc3c2)c2ccccc21)c1ccccc1 (stereo not drawn)", "Target": "Hs-578T", "Result": "23.2 µM (inactive)"}
{"Compound": "COCC(=O)OC1CCn2c1nc1c2C(=O)C(C)=C(NC(C)=O)C1=O (stereo not drawn)", "Target": "Hs-578T", "Result": "4.06 µM (inactive)"}
{"Compound": "C[Si](C)(c1ccccc1)[C@H]1CCCC=C1CCNC1c2ccccc2CCc2ccccc21", "Target": "Hs-578T", "Result": "> 100 µM (inactive)"}
{"Compound": "CC(=O)O[C@H]1C(=O)[C@@]2(C)[C@H]([C@H](OC(=O)c3ccc([N+](=O)[O-])cc3)[C@]3(O)C[C@H](OC(=O)[C@H](O)[C@@H](NC(=O)c4ccccc4)c4ccccc4)C(C)=C1C3(C)C)[C@]1(OC(C)=O)CO[C@@H]1C[C@@H]2O", "Target": "Hs-578T", "Result": "> 25 µM (inactive)"}
{"Compound": "CC1(C=O)CCC23COC4(CCC5C6(C)CCC(OC7OCC(OC8OC(CO)C(O)C(OC9OC(CO)C(O)C(O)C9O)C8OC8OCC(O)C(O)C8O)C(O)C7OC7OC(CO)C(O)C(O)C7O)C(C)(C)C6CCC5(C)C4(C)CC2O)C3C1 (stereo not drawn)", "Target": "Hs-578T", "Result": "1.5 µM (inactive)"}
{"Compound": "O=C1CC(=O)NC(NN2C(=O)/C(=C/c3ccc(Cl)cc3)N=C2c2ccccc2)=N1", "Target": "Hs-578T", "Result": "14.3 µM (inactive)"}
{"Compound": "COC(=O)c1cc(CNCCc2c[nH]c3ccccc23)on1", "Target": "Hs-578T", "Result": "> 100 µM (inactive)"}
{"Compound": "Cc1ccc2nc(-c3ccc(N)c(Br)c3)sc2c1", "Target": "Hs-578T", "Result": "14.2 µM (inactive)"}
